- protocolNotes: Wnt pathway potentiators raising nuclear beta-catenin – imaging, WNT3A-conditioned medium, mouse C2C12, NPC library, primary screen (AID 1117326); also: reference of the scale not given here
- conditionSet: stimulation, at 2 µM, stronger effect = higher value
Measured nuclear beta-catenin stimulation by item
Answer in %, number only, no unit symbol.

// solved cases for nuclear beta-catenin stimulation follow
| compound | unitAbbrev | reported |
| --- | --- | --- |
| Oc1cccc(O)c1 | % | 0.3 |
| COc1ccc(CCN(C)CCCC(C#N)(c2ccc(OC)c(OC)c2)C(C)C)cc1OC (centres undefined) | % | 0.5 |
| O=C(O)CCCC[C@@H]1SC[C@@H]2NC(=O)N[C@@H]21 | % | 1.3 |
| CN(Cc1cnc2nc(N)nc(N)c2n1)c1ccc(C(=O)N[C@@H](CCC(=O)O)C(=O)O)cc1 | % | 41 |

Ask | Report nuclear beta-catenin stimulation for Cc1cnc(C(=O)O)c[n+]1[O-] please.
Reply | 1.1

Ask | Report nuclear beta-catenin stimulation for O=C(O)CCNC(=O)c1ccc(N=Nc2ccc(O)c(C(=O)O)c2)cc1 please.
Reply | 0.3

Ask | Report nuclear beta-catenin stimulation for Cc1ncc([N+](=O)[O-])n1CC(O)CCl (centres undefined) please.
Reply | 1.1
